Entries and their measured T47 Ratio 48 hr follow.
# Test system: T-47D cells
# Procedure text: Caspase cascade activation (N-(Ac-DEVD)-N'-ethoxycarbonyl-R110 fluorogenic substrate) in T-47D cells
# Assay type: cell-based, Human
# Particulars: caspase activity: ratio of net RFU of test compound to control, 48 h incubation
Write no unit; give the number alone.

{"Compound": "O=S(=O)(c1ccccc1)c1cccc(Nc2cc(C(F)(F)F)nc(-c3cccnc3)n2)c1 [Example 65]", "Data value": 1.7}
{"Compound": "Cl.FC(F)(F)Oc1cccc(Nc2cc(C(F)(F)F)nc(-c3ccccn3)n2)c1 [Example 156]", "Data value": 1.7}
{"Compound": "O=C(Nc1ccccc1)c1cccc(Nc2cc(C(F)(F)F)nc(-c3cccnc3)n2)c1 [Example 66]", "Data value": 1.2}
{"Compound": "COc1ccc(Cl)cc1Nc1cc(C(F)(F)F)nc(-c2ccncc2)n1 [Example 162]", "Data value": 11.3}
{"Compound": "COc1cc(Nc2cc(C(F)(F)F)nc(-c3cccnc3)n2)cc(C(F)(F)F)c1 [Example 124]", "Data value": 19.9}

Problem: For the compound COc1cccc(Nc2cc(C(F)(F)F)nc(-c3ccccc3)n2)c1 [Example 73] , what T47 Ratio 48 hr is on record?
Solution: 1.6

Problem: Could you share which T47 Ratio 48 hr value was measured for COc1ccc(C)cc1Nc1cc(C(F)(F)F)nc(-c2cccnc2)n1 [Example 87] ?
Solution: 19.2

Problem: Tell me the measured T47 Ratio 48 hr of COc1cc(Nc2cc(C(F)(F)F)nc(-c3ccncc3)n2)cc(OC)c1 [Example 161] , please.
Solution: 10.7

Problem: For COc1ccc(OC)c(Nc2cc(-c3ccccn3)nc(-c3ccccn3)n2)c1 [Example 110] , what is its reported T47 Ratio 48 hr?
Solution: 8.9

Problem: Quick one: T47 Ratio 48 hr for COc1ccc(Cl)cc1Nc1cc(C(F)(F)F)nc(-c2cccnc2)n1 [Example 180] ?
Solution: 15.1

Problem: # T47 Ratio 48 hr lookup, item COc1ccc(C)cc1Nc1cc(C(F)(F)F)nc(-c2ccccn2)n1 [Example 190]
Solution: 19.3

Problem: Please look up its T47 Ratio 48 hr: COc1ccc(C)cc1Nc1cc(-c2ccccn2)nc(-c2ccccn2)n1.Cl [Example 112]
Solution: 3.3

Problem: Could you share which T47 Ratio 48 hr value was measured for FC(F)(F)c1cc(Nc2cccc3[nH]ccc23)nc(-c2ccccn2)n1 [Example 212] ?
Solution: 5.8
